Data provenance is patent US20130266605A1.

Molecular target: T1, CD40 ligand (UniProt P29965 108-261, limits assumed)
T1 sequence (looked up): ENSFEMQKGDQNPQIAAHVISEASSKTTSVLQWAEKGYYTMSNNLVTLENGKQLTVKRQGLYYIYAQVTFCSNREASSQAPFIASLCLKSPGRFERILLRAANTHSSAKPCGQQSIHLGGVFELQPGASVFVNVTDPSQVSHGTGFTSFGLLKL
Test: cell-based or functional assay
No end group written: not given here.
Measurement name: EC50, inhibition of CD40L-induced CD86 expression on primary B-cells (nM)
Give your result in nM as a bare value.

Binder	Readout value
CHPFSIKNVFSIWNFFSVY [Cys_M1_6S]	306
CHPFSIKNVFSIWNFFSVY (also: homodimer: disulfide between the N-terminal cysteines of two chains, also called 6-6 dimer; homodimer of the Phylomer peptide M1-6) [Cys_M1_6S homodimer]	48.9
LPFVPYRSHVLKYGWFFPVQWSIFAVLPFQYLHRSR [CD40L M1_18s]	743
PPRYNLFFLFRFYSSFRRDYLYF (Cys-to-Ser derivative; also called M1-9Sa) [CD40L M1_9s]	564

With those in mind, consider the next binder.
Challenge: EC50, inhibition of CD40L-induced CD86 expression on primary B-cells for HPFSIKNVFSIWNFFSVY (Cys-to-Ser derivative) [CD40L M1_6s] ?
Response given: 323
